Just for reference, paper PMC10397247 is where these values come from.

Biological target: T1, P5A
T1 chain: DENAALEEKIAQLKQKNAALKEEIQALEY
Experiment: two-hybrid library CCNG1;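 further: natural log of median RNA to DNA barcode read ratio; higher means stronger binding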
This section presents binders with their documented interaction score values.
parameter measured: interaction score

> print(dat)
                                   binder  parameter.measured  measured.value
1  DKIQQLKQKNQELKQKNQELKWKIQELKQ [P2A-bN]   interaction score           -1.29
2     DEIQQLEEEIAQLEQKNAALKEKNQALKY [P3A]   interaction score          -0.901
3    DKNAQLKEKIAALKEKIQQLKEENQALEY [P12A]   interaction score           -1.22
4     DEIQALEEENAQLEQENAALEEEIAQLEY [P1A]   interaction score            -2.1
5     DKIAQLKQKIQALKQENQQLEEENAALEY [P4A]   interaction score           -2.12
6     DKIAQLKEKNAALKEKNQQLKEKIQALKY [P2A]   interaction score           -1.27
7    DENQALEQEIAQLEQEIAALEQKNAQLKY [P11A]   interaction score           0.167
8     DENAALEEKIAQLKQKNAALKEEIQALEY [P5A]   interaction score           -1.41
9    DKNAQLKEENAALEEKIQQLKEKIQALKY [P10A]   interaction score          -0.424
